B1: POU domain, class 3, transcription factor 1, residues 247 to 324; numbered along this chain, Q03052 (parent)
chain: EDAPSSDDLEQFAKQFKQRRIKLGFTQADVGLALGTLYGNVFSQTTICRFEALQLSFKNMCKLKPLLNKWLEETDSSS

Variants of: B1
Experiment: abundance fitness (aPCA) (normalised: wild type 0, dead -1); higher = more abundant; growth selection in yeast, the domain comes from the species named
Details: Homo sapiens
# reported abundance fitness; entries follow
I only need the number, thanks.

Example results:
[[record]]
sequence_variant = "A28E"
measurement_type = "abundance fitness"
endpoint_result = -0.008

[[record]]
sequence_variant = "M60A"
measurement_type = "abundance fitness"
endpoint_result = -0.244

[[record]]
sequence_variant = "L55N"
measurement_type = "abundance fitness"
endpoint_result = -0.2

[[record]]
sequence_variant = "F57K"
measurement_type = "abundance fitness"
endpoint_result = 0.005

[[record]]
sequence_variant = "T26I"
measurement_type = "abundance fitness"
endpoint_result = -0.951


Quickly give me recorded abundance fitness for Y38S
-0.026

Quickly give me recorded abundance fitness for T36K
0.111

Quickly give me recorded abundance fitness for D29T
-0.512

Quickly give me recorded abundance fitness for S77C
-0.165

Quickly give me recorded abundance fitness for L23R
-0.313

Quickly give me recorded abundance fitness for L32W
-0.185

Quickly give me recorded abundance fitness for A52V
-1.02

Quickly give me recorded abundance fitness for E73T
-0.034

Quickly give me recorded abundance fitness for Q27S
-0.369

Quickly give me recorded abundance fitness for L53I
0.064
